Reference source: patent US20200079833A1

# subject_of_test: T1, GLP-1R in the INS1e assay (UniProt P32301 22-463, limits assumed)
# T1 sequence (looked up): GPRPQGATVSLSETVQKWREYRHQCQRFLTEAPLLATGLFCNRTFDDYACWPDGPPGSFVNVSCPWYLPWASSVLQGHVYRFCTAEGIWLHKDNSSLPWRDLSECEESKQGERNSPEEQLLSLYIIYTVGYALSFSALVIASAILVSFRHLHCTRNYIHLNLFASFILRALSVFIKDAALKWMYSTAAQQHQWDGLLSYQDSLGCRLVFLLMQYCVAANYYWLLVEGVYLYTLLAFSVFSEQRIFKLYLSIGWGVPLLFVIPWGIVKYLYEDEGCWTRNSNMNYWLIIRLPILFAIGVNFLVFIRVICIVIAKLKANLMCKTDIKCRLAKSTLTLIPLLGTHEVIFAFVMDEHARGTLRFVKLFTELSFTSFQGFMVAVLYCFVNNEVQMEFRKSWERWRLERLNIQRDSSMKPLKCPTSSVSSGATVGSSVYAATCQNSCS
# assay_text: cell-based or functional assay
Starred links: 1 amine or outer side, 2 acyl side, 3 side chain; linkers in the order of their positions; H or OH if unused. Non-standard residues stand in square brackets, D forms with d. Groups on a side chain read outwards from the residue. Primed or numbered codes have the meaning given here. No end group written: not given here. *: point of attachment. γGlu = O=C(O)[C@H](CCC(=O)[*:2])N[*:1]; Palmitoyl = CCCCCCCCCCCCCCCC(=O)*; αMeF = C[C@](N)(Cc1ccccc1)C(=O)O; Myristoyl = CCCCCCCCCCCCCC(=O)*; αMeK = C[C@](N)(CCCCN)C(=O)O; Lauroyl = CCCCCCCCCCCC(=O)*; αMeS = C[C@](N)(CO)C(=O)O; PEG2′ = not defined here; Aib = CC(C)(N)C(=O)O
Field: INS1e assay EC50 (cAMP) Mean. Provide a value for each of the binders that follow.
Express it in nM; write the number only.

Look up INS1e assay EC50 (cAMP) Mean for this binder: H[Aib]EGS[αMeF]TSDV[αMeS]SK([PEG2′-PEG2′-γGlu-Lauroyl])LEGEAA[αMeK]E[αMeF]IAK([PEG2′-PEG2′-γGlu-Lauroyl])VVEGG-NH2 [SEQ ID NO: 405]
0.116

What do we get for H[Aib]EGS[αMeF]TSDV[αMeS]SK([PEG2′-PEG2′-γGlu-Lauroyl])LEGEAA[αMeK]EFIAWK([PEG2′-PEG2′-γGlu-Lauroyl])VEGG-NH2 [SEQ ID NO: 264] ?
1.03

What do we get for H[Aib]EGS[αMeF]TSDVSK([PEG2′-PEG2′-γGlu-Palmitoyl])YLEGEAA[αMeK]EFIK([PEG2′-PEG2′-γGlu-Palmitoyl])WVVEGG-NH2 [SEQ ID NO: 251] ?
7.16

What do we get for H[Aib]EGS[αMeF]TSDV[αMeS]SK([PEG2′-PEG2′-γGlu-Myristoyl])LEGEAA[αMeK]E[αMeF]IAK([PEG2′-PEG2′-γGlu-Myristoyl])VVEGG-NH2 [SEQ ID NO: 408] ?
0.412
